Tested on: Aedes aegypti larvae
Method description: larval motility relative to same well at 0 h (fraction); higher = more motile (less active compound), active = 0.4 or less
Cond: 10 µM; 2 h
Quantity name: larval motility
Give bare numbers.

Some molecules with known larval motility results, for comparison:
molecule="O=C(Nc1ccc(-c2ccccc2)cc1)C1=C(O)C(Cc2ccccc2)OC1=O (centres undefined)" measured_on="Aedes aegypti larvae" result_number=0.886
molecule=C=CCN(C(=O)OCc1ccc([N+](=O)[O-])cc1)C1CCN(CC[C@](C)(CN(C)S(=O)(=O)c2ccccc2)c2ccccc2)CC1 measured_on="Aedes aegypti larvae" result_number=0.847
molecule=CCNC(=O)Nc1cn2c(-c3ncc(CC)cn3)cc(-c3cccnc3)cc2n1 measured_on="Aedes aegypti larvae" result_number=0.892
molecule=CC(C)CCN1C(=O)C(C2=NS(=O)(=O)c3cc(NS(C)(=O)=O)ccc3N2)=C(O)[C@@H]2[C@H]3CC[C@H](C3)[C@@H]21 measured_on="Aedes aegypti larvae" result_number=0.853
molecule=Clc1ccc(Cn2c(CN3CCCC3)nc3ccccc32)cc1 measured_on="Aedes aegypti larvae" result_number=1.09

Lab note: each molecule below needs its larval motility filled in.
1. O=[N+]([O-])c1cn(Cc2nc(O)nc(O)c2Br)cn1
2. CC(C)C(=O)N[C@H]1[C@H]([C@H](O)[C@H](O)CO)OC(C(=O)O)=C[C@@H]1N=[N+]=[N-]
3. O=C(c1cc(O)nc2ccccc12)N1CCN(c2ccccc2)CC1

Reply |
[0.834, 1.64, 0.848]

Ask | For the molecule Oc1c(C(Nc2nc3ccccc3s2)c2ccc(OC(F)F)cc2)ccc2cccnc12 (centres undefined) , what larval motility is on record?
Reply | 0.53

###

Test system: Aedes aegypti larvae
Method description: larval motility relative to same well at 0 h (fraction); higher = more motile (less active compound), active = 0.4 or less
Cond: 10 µM; 2 h
Quantity name: larval motility
One number for each entry.

// known answers, use as guide
mol_smiles=NC(=S)N/N=C/c1ncccc1N result_number=0.987
mol_smiles=CN(C)[C@@H]1C(=O)C(C(N)=O)=C(O)[C@@]2(O)C(=O)C3=C(O)c4c(O)c(NC(=O)CN5CCCC5)cc(F)c4C[C@H]3C[C@@H]12 result_number=0.841
mol_smiles=CC(C)(C)OC(=O)NCc1ccc(C(=O)N[C@H]2CCOC2=O)cc1 result_number=0.701
mol_smiles=Cc1ccccc1NC(=O)Nc1cccc([N+](=O)[O-])c1 result_number=1.19

State the recorded larval motility for every item in the following list.
1. O=C(NCc1ncc(C(F)(F)F)cc1Cl)c1c(Cl)cccc1Cl
2. CCc1cc(O)c(Oc2cccnc2N)cc1F

Reply |
1. 1.3
2. 1.72

Ask | Request the reported larval motility associated with CC(C)(C)c1cc(C(=O)/C(C#N)=N/Nc2cccc(Cl)c2)no1
Reply | 1.14

###

Assign larval motility to each entry below.
System: Aedes aegypti larvae
Method description: larval motility relative to same well at 0 h (fraction); higher = more motile (less active compound), active = 0.4 or less
Cond: 10 µM; 2 h
Numbers only.

// below: answered compounds
mol_smiles=Cc1onc(-c2ccccc2Cl)c1C(=O)N[C@@H]1C(=O)N2[C@@H]1SC(C)(C)[C@@H]2C(=O)O quantity_name="larval motility" result_number=1.22
mol_smiles=c1cnc(NCc2ccc(CNc3ncccn3)cc2)nc1 quantity_name="larval motility" result_number=1.23
mol_smiles=Cc1onc(-c2ccccc2)c1-c1ccc(S(N)(=O)=O)cc1 quantity_name="larval motility" result_number=0.513

Ask | Please report the recorded larval motility for O=C(NC(=O)N1CCCc2ccccc21)c1cccc(Cl)c1 .
Reply | 0.838

###

Tested on: Aedes aegypti larvae
Method description: larval motility relative to same well at 0 h (fraction); higher = more motile (less active compound), active = 0.4 or less
Cond: 10 µM; 24 h
Everything with larval motility lower than 0.8 is Condition not met; everything else, including exactly 0.8, is Condition met.

Completed entries (count: 3):
mol_smiles=O=C(O)CSc1cc(NS(=O)(=O)c2cccc3cccnc23)c2ccccc2c1O assigned_category="Condition not met"
mol_smiles=O=C(N[C@H](CCS)C(=O)N[C@H](Cc1ccccc1)C(=O)O)c1cc2ccccc2[nH]1 assigned_category="Condition met"
mol_smiles=Cc1ccc(N2CCC(CCOc3ccc(S(C)(=O)=O)cc3)CC2)nn1 assigned_category="Condition not met"

Note: attention shifts to another entry.
Ask | Item Cc1[nH]c2ccccc2c1CCNCc1ccc(/C=C/C(=O)NO)cc1 with larval motility of 0.8 or above?
Reply | Condition met

###

Test system: Aedes aegypti larvae
Method description: larval motility relative to same well at 0 h (fraction); higher = more motile (less active compound), active = 0.4 or less
Cond: 10 µM; 24 h
Quantity name: larval motility
Numbers only.

compound=Oc1ccc2[nH]c(-c3ccccc3)nc2c1 result_number=0.514

Batch: larval motility for all items listed.
1. CCCc1ccc(-c2cc3cn([C@H]4C[C@H](O)[C@@H](CO)O4)c(=O)nc3o2)cc1
2. CCc1cc(O)c(Oc2cccnc2N)cc1F
3. Nc1nc2c(ncn2/C=C2/CC2(CO)CO)c(=O)[nH]1
4. O=c1ccc2ncc(=O)n3c2n1CC3CN1CCC(NCc2cc3c(cn2)OCCC3)CC1 (stereo unspecified)
5. NC[C@H]1O[C@H](O[C@H]2[C@H](O)[C@@H](O[C@H]3O[C@H](CO)[C@@H](O)[C@H](N)[C@H]3O)[C@H](N)C[C@@H]2N)[C@H](N)C[C@@H]1O
6. CN1CCN(c2ccc3[nH]c(-c4ccc5[nH]c(-c6ccc(O)cc6)nc5c4)nc3c2)CC1
7. NC(=O)[C@@H]1CC[C@@H]2CN1C(=O)N2OS(=O)(=O)O

Reply |
1: 0.902; 2: 1.42; 3: 0.573; 4: 0.964; 5: 1.43; 6: 1.11; 7: 1.3

Hello, I would appreciate it if you could give larval motility for each entry below.
1. Nc1ccc2oc(=O)ccc2c1I
2. N#Cc1c(F)c(Cl)c(NCc2ccccc2)c(C#N)c1F
3. C=C(C)[C@@H]1CC[C@]2(C(=O)O)CC[C@]3(C)[C@H](CC[C@@H]4[C@@]5(C)CC[C@H](O)C(C)(C)[C@@H]5CC[C@]43C)[C@@H]12
4. O=C(O)c1sccc1S(=O)(=O)n1ccc2cc(Br)ccc21
5. CC(C)(C)c1cccc(-c2nc3cc(C(=N)N)ccc3[nH]2)c1O
6. Cc1onc(-c2ccccc2Cl)c1C(=O)N[C@@H]1C(=O)N2[C@@H]1SC(C)(C)[C@@H]2C(=O)O

Reply |
[0.509, 0.978, 1.18, 0.741, 0.466, 1.24]

// batch mode: one larval motility value per listed entry
1. CCCCc1ccc(-c2nc(C)c(C(=O)OC)s2)cc1
2. O=S(=O)(Nc1ccc(O)cc1)c1cccc2cccnc12

Reply |
1. 0.97
2. 0.629

###

Test system: Aedes aegypti larvae
Method description: larval motility relative to same well at 0 h (fraction); higher = more motile (less active compound), active = 0.4 or less
Cond: 10 µM; 24 h
Answer with one of the outcomes given here: yes (1) for active, no (0) for inactive

compound=O=C(Nc1ccc(N2CCN(C(=O)c3ccccc3)CC2)cc1)c1ccc2c(c1)OCO2 assigned_category="no (0)"
compound=Nc1nc(F)nc2c1ncn2[C@H]1O[C@@H](CO)[C@H](O)[C@@H]1O assigned_category="no (0)"
compound="CSc1ccc2c(c1)C(N1CCN(C)CC1)Cc1ccccc1S2 (centres undefined)" assigned_category="no (0)"

Ask | Test call for this compound, please: CC1CN(c2ncnc3c2c(-c2ccccc2)cn3-c2ccc(F)cc2)CC(C)O1 (centres undefined)
Reply | no (0)

Ask | Per the assay record, what outcome was assigned to FC(F)(F)Oc1ccc(Nc2ccc3cccc(Cl)c3n2)cc1 ?
Reply | yes (1)

Ask | Dear all, I need the recorded test outcome for NNC(=O)c1ccncc1 , thank you.
Reply | no (0)

Ask | Per the assay record, what outcome was assigned to C[C@H](NC(CC(=O)c1ccccc1C(F)(F)F)C(=O)O)c1ccccc1 (some centres undefined) ?
Reply | no (0)

Ask | Write down the call the test reported for this compound. Item: COc1cc(Cc2cc(N)nc(N)n2)cc(OC)c1OC
Reply | no (0)

Ask | // return assay outcome for O=c1cc(NCCCN[C@@H]2CCOc3c(Br)cc(Br)cc32)[nH]c2ccsc12
Reply | no (0)

###

Tested on: Aedes aegypti larvae
Method description: larval motility relative to same well at 0 h (fraction); higher = more motile (less active compound), active = 0.4 or less
Cond: 10 µM; 24 h
# label = 1 if larval motility >= 0.9 else 0

Worked cases, answers included:
compound=c1cnc(NCc2ccc(CNc3ncccn3)cc2)nc1 assigned_category=0
compound=CC[C@@H](CO)NCCN[C@@H](CC)CO assigned_category=0
compound=COc1ccc(NS(=O)(=O)c2ccc(Cl)s2)cn1 assigned_category=1
compound=CC(=O)O[C@H]1C[C@@]2(C)[C@@H](C[C@@H](O)[C@H]3[C@@]4(C)CC[C@@H](O)[C@@H](C)[C@@H]4CC[C@@]32C)/C1=C(\CCC=C(C)C)C(=O)O assigned_category=0
compound=CCCCCCCCCN1C[C@@H](O)[C@H](O)[C@@H](O)[C@@H]1CO assigned_category=1

Ask | hey, is larval motility for this one >= 0.9? CCN(CC)CCCC(C)Nc1ccnc2cc(Cl)ccc12 (centres undefined)
Reply | 0

Ask | Is it the case that CC[C@H](CO)Nc1nc(NCc2ccccc2)c2ncn(C(C)C)c2n1 has larval motility reaching or exceeding 0.9?
Reply | 0

Ask | # check: larval motility of O=C(Cc1ccccc1F)Nc1nc2ccccc2[nH]1 is greater than or equal to 0.9
Reply | 0
